Would you mind telling me the reported Population Healthy Nuclei (%) of each entry?
Tested on: Fibroblast
MEASUREMENT NOTES: Multiplex assay against human fibroblast
Assay type: toxicity, cell-based
CONDITION SUMMARY: 24 h, 10 µM, compound concentration 10 uM, replicate 2
Non-standard residues stand in square brackets, D forms with d. Residues, ends and D or L forms follow the SMILES beside them.
Answers are plain numbers, in %.

COMPOUND | UNIT | Population Healthy Nuclei (%)
COc1ccc2[nH]c(I)c(CCNC(C)=O)c2c1 [IODOMELATONIN] | % | 41
Nc1nc(CC(=O)Nc2ccc(CCNC[C@H](O)c3ccccc3)cc2)cs1 [MIRABEGRON] | % | 48
COc1cc(C(=O)N2CC[C@@H](O)[C@@H](N)C2)cc2nc(-c3cc4ccccc4n3CC3CC3)n(C)c12.Cl | % | 54
Nc1nc(-c2ccco2)c2cnn(Cc3ccccc3F)c2n1 | % | 44
O=C(Nc1cc(-c2ccccc2)nn1-c1ccccc1F)c1ccc([N+](=O)[O-])cc1 | % | 53

Would you mind listing Population Healthy Nuclei (%) for each of the following compounds?
1. COc1cc2nc(N3CCN(C(=O)COc4c(OC)cccc4C(C)C)CC3)nc(N)c2cc1OC.Cl.Cl
2. Cc1nn(C)c2nc(NNC(=O)Nc3cc(Cl)nc(Cl)c3)cc(C(C)C)c12
3. CC(C)C[C@@H]1NC(=O)[C@@H](C(C)C)NC(=O)[C@@H]2CCCN2C(=O)[C@@H](CC(=O)O)NC(=O)[C@@H](Cc2c[nH]c3ccccc23)NC1=O [BQ-123] (cyclo(L[dW][dD]P[dV]))
4. Cc1cc(=O)n(C)c2cc(N3C(=O)CC[C@H](NS(=O)(=O)CC(C)C)[C@H]3c3ccc(Cl)cc3)ccc12
5. COCCn1c(C)c(C)s/c1=N\C(=O)C1C(C)(C)C1(C)C
6. C=CCN1C[C@H](C(=O)N(CCCN(C)C)C(=O)NCC)C[C@@H]2c3cccc4[nH]cc(c34)C[C@H]21 [CABERGOLINE]

Data returned:
1. 40
2. 61
3. 50
4. 26
5. 36
6. 46

----------
Would you mind telling me the reported Population Apoptotic (%) of each entry?
System: U2OS
MEASUREMENT NOTES: Multiplex assay against U2OS
Assay type: toxicity, cell-based
CONDITION SUMMARY: human, 48 h, 10 µM, compound concentration 10 uM, replicate 1
Non-standard residues stand in square brackets, D forms with d. Residues, ends and D or L forms follow the SMILES beside them.
Numbers only, in %.

Examples with answers:
COMPOUND | Population Apoptotic (%)
O=C(Nc1cc(-c2ccccc2)nn1-c1ccccc1F)c1ccc([N+](=O)[O-])cc1 | 81
CC(C)C[C@H](CO)Nc1nc(S[C@@H](C)c2ccccc2)nc2nc(N)sc12 | 90
Nc1nc(CC(=O)Nc2ccc(CCNC[C@H](O)c3ccccc3)cc2)cs1 | 87
S=C(NCCCc1c[nH]cn1)NCCCN(Cc1ccc(Cl)c(Cl)c1)c1ccc(Br)cn1 | 70
COc1ccc2c(c1OCc1ccccc1)C[C@@H](C(=O)O)N(C(=O)C(c1ccccc1)c1ccccc1)C2 | 88

Would you mind listing Population Apoptotic (%) for each of the following compounds?
1. COc1cc2nc(N3CCN(C(=O)c4ccco4)CC3)nc(N)c2cc1OC.Cl [PRAZOSIN HYDROCHLORIDE]
2. CN1C[C@H](C(=O)N[C@]2(C)O[C@@]3(O)[C@@H]4CCCN4C(=O)[C@H](Cc4ccccc4)N3C2=O)C[C@@H]2c3cccc4[nH]cc(c34)C[C@H]21.CS(=O)(=O)O [DIHYDROERGOTAMINE MESYLATE]
3. COC(c1ccccc1)(c1ccccc1)[C@H](Oc1nc(C)cc(C)n1)C(=O)O
4. C[C@@H]1CC(=O)Nc2cccc(-c3ccc4c(c3)c(-c3cnn(C)c3)nn4C)c2N1
5. CC(C)C[C@@H]1NC(=O)[C@@H](C(C)C)NC(=O)[C@@H]2CCCN2C(=O)[C@@H](CC(=O)O)NC(=O)[C@@H](Cc2c[nH]c3ccccc23)NC1=O [BQ-123] (cyclo(L[dW][dD]P[dV]))
6. Cc1cc(-c2ccc3c(c2)CC[C@H]3N2CC3(CCN(C(=O)Cc4cn5cc(C)sc5n4)CC3)C2)ncn1
7. COc1ccc2[nH]c(I)c(CCNC(C)=O)c2c1
8. CN1CCN(c2ccc(Nc3c4ccccc4nc4ccccc34)cc2)CC1.Cl.Cl.O

Data returned:
[96, 95, 87, 100, 94, 74, 97, 96]

Would you mind listing Population Apoptotic (%) for each of the following compounds?
1. O=C(NCCNCC(O)COc1ccc(O)cc1)N1CCOCC1.O=C(NCCNCC(O)COc1ccc(O)cc1)N1CCOCC1.O=C(O)/C=C/C(=O)O (stereo unspecified) [XAMOTEROL FUMARATE]
2. CSc1nc(NC2CCCC2)c([N+](=O)[O-])c(NC2CCCC2)n1
3. C=CCN1C[C@H](C(=O)N(CCCN(C)C)C(=O)NCC)C[C@@H]2c3cccc4[nH]cc(c34)C[C@H]21

Data returned:
1. 89
2. 89
3. 86
